# testDetails: Hydrophobic interaction chromatography (HIC)
# Type: physicochemical
# measurementContext: hydrophobicity by HIC, full IgG
measurementKind: Retention time (min)
Record the value in min, omitting the unit from your answer.

Previously resolved entries follow.
molecule | Retention time, min
2E7: anti-CD70 antibody clone, VH SEQ 7 and VL SEQ 8; tested as scFv and full human IgG1/kappa (antibody, V domains shown, Synthetic 2E7 VH amino acid sequence; Synthetic 2E7 VL amino acid sequence, tested as scFv and full human IgG1/kappa) VH: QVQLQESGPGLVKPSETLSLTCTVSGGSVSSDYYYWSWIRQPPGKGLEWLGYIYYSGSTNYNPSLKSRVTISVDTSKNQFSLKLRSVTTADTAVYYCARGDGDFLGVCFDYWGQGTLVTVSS VL: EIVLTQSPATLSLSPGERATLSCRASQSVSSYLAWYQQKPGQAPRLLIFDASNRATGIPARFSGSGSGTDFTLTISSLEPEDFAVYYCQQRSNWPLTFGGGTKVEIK | 10.19
2A4: anti-CD70 antibody clone, VH SEQ 3 and VL SEQ 4; scFv and full human IgG1/kappa (antibody, V domains shown) VH: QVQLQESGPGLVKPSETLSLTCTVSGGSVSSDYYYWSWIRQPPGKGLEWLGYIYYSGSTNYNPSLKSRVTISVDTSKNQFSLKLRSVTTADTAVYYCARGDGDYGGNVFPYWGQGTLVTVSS VL: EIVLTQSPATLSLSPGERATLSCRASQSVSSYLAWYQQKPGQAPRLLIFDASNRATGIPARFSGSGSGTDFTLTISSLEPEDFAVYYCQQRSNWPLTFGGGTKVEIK | 9.06
2A4P0L1: new VH/VL combination derived from the VH of 2A4 and the VL of 2D2 (antibody, V domains shown) VH: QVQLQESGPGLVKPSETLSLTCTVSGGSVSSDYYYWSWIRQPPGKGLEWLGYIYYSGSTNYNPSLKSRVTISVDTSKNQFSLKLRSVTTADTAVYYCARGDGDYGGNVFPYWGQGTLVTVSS VL: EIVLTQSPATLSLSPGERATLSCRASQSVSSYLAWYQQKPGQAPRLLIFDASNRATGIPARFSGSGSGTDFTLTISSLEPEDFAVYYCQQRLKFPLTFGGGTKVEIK | 9.56

Would you kindly look at the next entry?
# query: Retention time of entry 1H8: anti-CD70 antibody clone, VH SEQ 5 and VL SEQ 6; scFv and full human IgG1/kappa (antibody, V domains shown) VH: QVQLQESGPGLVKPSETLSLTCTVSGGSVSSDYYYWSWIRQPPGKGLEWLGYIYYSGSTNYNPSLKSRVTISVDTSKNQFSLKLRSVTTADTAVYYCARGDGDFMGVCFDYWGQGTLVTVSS VL: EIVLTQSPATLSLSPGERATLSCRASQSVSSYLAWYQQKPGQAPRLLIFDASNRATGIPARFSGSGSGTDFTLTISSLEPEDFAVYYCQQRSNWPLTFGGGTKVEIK 10.24
